Recorded percent viability, one value per entry.
System: MCF10A
TEST METHOD NOTES: percent viability (nuclei count relative to siNT); higher = more viable cells
EXPERIMENTAL PARAMETERS: 20 nM; 72 h
VALUE TYPE: percent viability (%)

ORDERED RESIDUES | VALUE TYPE | OBSERVED
UAGCAGCACAGAAAUAUUGGC [hsa-miR-195-5p] | percent viability | 26.4
GCGGGGCUGGGCGCGCG [hsa-miR-4508] | percent viability | 90.5
UGACCGAUUUCUCCUGGUGUUC [hsa-miR-29c-5p] | percent viability | 105
CCUAGACACCUCCAGUUC [hsa-miR-4305] | percent viability | 39.4
ACUCGGCUGCGGUGGACAAGU [hsa-miR-4638-5p] | percent viability | 39.5
